I'd be grateful if you could share measured pEC50 for these entries.
- Target under test: ABCD2 WT (Homo sapiens, UniProt Q9UBJ2)
- Test method notes: D2 correction dose-response assay: ABCD2 WT HiBit protein expression
- Settings: HEK-293/ABCD2 WT cells, 24 hours treatment, HiBit luminescence; class combines EC50 and Mean MaxAct (fold); read-out: ABCD2 WT EC50, Emax
pEC50: −log10 of the molar value.

Task item: Given the entry `Cc1cc(C(F)F)nc(C2CC2)c1Oc1nc(-c2cncc(C#N)c2)ccc1NS(C)(=O)=O` , report its measured pEC50.
Reply: > 6.00

Task item: // query: `COC1CN(c2cncc(-c3ccc(NS(C)(=O)=O)c(Oc4c(C)cc(C)nc4C)n3)c2)C1`
Reply: > 6.00

Task item: Continue with `Cc1cc(C)c(Oc2nc(-c3cncc(C#N)c3)cnc2NS(C)(=O)=O)c(C)n1`
Reply: 5.00 to 6.00

Task item: Would you mind doing `Cc1nc(OC2CC2)c(C(F)(F)F)cc1Oc1nc(-c2cncc(C#N)c2)ccc1NS(C)(=O)=O` as well?
Reply: 5.00 to 6.00

---

Kindly supply the reported EC50 values for the records listed here.
- Target under test: ABCD2 WT (Homo sapiens)
- Sequence (Q9UBJ2 1-740): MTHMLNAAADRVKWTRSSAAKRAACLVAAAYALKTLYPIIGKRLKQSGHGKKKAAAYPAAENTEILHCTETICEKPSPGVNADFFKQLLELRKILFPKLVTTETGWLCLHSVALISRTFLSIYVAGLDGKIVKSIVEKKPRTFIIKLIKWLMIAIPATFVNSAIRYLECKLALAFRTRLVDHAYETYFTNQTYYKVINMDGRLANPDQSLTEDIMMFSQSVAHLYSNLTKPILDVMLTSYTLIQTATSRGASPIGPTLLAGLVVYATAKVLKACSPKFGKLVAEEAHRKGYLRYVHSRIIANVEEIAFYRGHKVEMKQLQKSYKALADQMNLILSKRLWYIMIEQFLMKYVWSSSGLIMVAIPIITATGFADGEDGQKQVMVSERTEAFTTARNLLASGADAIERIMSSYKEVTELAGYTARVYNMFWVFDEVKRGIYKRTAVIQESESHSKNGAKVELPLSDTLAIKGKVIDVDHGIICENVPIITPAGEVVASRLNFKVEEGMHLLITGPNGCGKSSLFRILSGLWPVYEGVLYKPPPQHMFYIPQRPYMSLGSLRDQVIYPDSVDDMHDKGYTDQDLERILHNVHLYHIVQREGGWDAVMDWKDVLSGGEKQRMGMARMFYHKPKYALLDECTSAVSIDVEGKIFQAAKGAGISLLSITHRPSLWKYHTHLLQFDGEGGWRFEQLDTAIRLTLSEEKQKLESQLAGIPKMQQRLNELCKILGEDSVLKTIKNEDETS
- Test method notes: D2 correction dose-response assay: ABCD2 WT HiBit protein expression
- Settings: HEK-293/ABCD2 WT cells, 24 hours treatment, HiBit luminescence; class combines EC50 and Mean MaxAct (fold); read-out: ABCD2 WT EC50, Emax

Task item: What does the record list as EC50 for `Cc1cc(C)c(Oc2nc(-n3cnc(C)c3)ccc2NS(C)(=O)=O)c(C)c1` ?
Reply: < 1 µM

Task item: `Cc1cc(C)c(Oc2nc(-c3cncc(Cl)c3)ccc2N(C)S(=O)(=O)c2cnn(C)c2)c(C)c1` ?
Reply: < 1 µM

Task item: # iterate: `CNS(=O)(=O)c1ccc(-c2cncc(C#N)c2)nc1Oc1c(C)nc(C(F)F)nc1C1CC1`
Reply: > 25 µM

Task item: Also `Cc1cc(C)c(Oc2nc(-c3ccc(C#N)nc3C)ccc2NS(C)(=O)=O)c(C)n1` , if possible.
Reply: 1 to 10 µM

Task item: Repeat with `COc1ccc2nc[nH]c2c1S(=O)(=O)Nc1ccc(-c2cncc(Cl)c2)nc1Oc1c(C)cc(C)cc1C`
Reply: > 25 µM

Task item: And then `CNS(=O)(=O)c1ncc(-c2cncc(Cl)c2)nc1Oc1c(C)cc(C)c(Cl)c1C` , what is it?
Reply: 1 to 10 µM

Task item: Next: `Cc1nc(C(F)(F)F)nc(C2CC2)c1Oc1nc(-c2cncc(C#N)c2)ccc1NS(C)(=O)=O`
Reply: < 1 µM

---

- Target under test: ABCB4 WT (Homo sapiens)
- Sequence (P21439 whole entry): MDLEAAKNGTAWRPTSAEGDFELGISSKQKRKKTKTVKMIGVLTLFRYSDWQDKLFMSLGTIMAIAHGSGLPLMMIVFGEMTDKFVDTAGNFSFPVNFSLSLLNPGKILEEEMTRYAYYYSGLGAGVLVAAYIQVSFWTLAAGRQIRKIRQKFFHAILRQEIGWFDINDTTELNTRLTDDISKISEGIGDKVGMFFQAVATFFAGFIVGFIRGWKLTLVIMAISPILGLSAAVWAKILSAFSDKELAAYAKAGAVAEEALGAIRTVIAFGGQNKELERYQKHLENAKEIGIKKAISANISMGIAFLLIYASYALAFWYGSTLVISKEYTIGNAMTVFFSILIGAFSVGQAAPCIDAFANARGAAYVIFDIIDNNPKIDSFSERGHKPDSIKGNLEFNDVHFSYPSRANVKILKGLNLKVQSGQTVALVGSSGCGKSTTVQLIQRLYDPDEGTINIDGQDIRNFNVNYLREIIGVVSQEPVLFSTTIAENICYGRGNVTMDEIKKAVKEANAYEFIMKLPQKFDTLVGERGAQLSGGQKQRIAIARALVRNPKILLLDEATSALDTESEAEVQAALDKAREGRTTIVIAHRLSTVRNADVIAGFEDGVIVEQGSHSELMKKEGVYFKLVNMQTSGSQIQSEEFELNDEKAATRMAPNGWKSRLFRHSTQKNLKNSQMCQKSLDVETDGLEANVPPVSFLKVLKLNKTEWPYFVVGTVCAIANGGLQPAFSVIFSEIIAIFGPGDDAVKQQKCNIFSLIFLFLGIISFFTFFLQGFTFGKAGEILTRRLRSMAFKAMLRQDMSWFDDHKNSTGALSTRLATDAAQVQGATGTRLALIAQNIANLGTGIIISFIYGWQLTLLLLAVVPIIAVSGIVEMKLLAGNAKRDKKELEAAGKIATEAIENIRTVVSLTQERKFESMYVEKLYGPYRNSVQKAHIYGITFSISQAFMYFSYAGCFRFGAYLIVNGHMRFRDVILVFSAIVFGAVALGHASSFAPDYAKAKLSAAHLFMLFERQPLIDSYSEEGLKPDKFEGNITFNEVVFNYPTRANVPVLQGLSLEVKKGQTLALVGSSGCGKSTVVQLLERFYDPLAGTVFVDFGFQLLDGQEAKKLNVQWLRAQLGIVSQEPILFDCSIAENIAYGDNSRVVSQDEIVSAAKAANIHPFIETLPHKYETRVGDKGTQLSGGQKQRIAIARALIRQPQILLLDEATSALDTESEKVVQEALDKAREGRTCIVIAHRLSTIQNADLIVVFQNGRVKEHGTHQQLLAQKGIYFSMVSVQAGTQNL
- Test method notes: ABCB4 WT assay: HiBit protein expression
- Settings: HEK-293 cells stably expressing HiBit-tagged ABCB4 WT; 24 h treatment; top concentration 30 μM; read-out: ABCB4 WT EC50, Emax
pEC50: −log10 of the molar value.
Endpoint label: pEC50

Task item: Fill in the blank: the reported pEC50 of `CNS(=O)(=O)c1ccc(N2CCN(C)C(=O)C2)nc1Oc1c(C)cc(C)cc1C` is ____.
Reply: ≤ 4.60

Task item: Try the compound `Cc1cc(C(F)(F)F)nc(C2CC2)c1Oc1nc(-c2cncc(C#N)c2)ccc1N(C)S(=O)(=O)C1CC1`
Reply: > 6.00

Task item: Subsequent entry: `Cc1cc(C)c(Oc2nc(-c3cn(C)nc3C)ccc2NS(C)(=O)=O)c(C)c1`
Reply: > 6.00

Task item: Could you do the same for `CNS(=O)(=O)c1cnc(-c2cncc(Cl)c2)cc1Oc1c(C)cc(C)cc1C` , please?
Reply: ≤ 4.60

Task item: Please answer likewise for `Cc1cc(C)c(Oc2nc(-c3cncc(C#N)c3)ccc2NS(=O)(=O)C2COC2)c(C)n1`
Reply: > 4.60

Task item: Same question, `Cc1cc(C)c(Oc2nc(N3CCN(C(=O)OC(C)C)CC3)ccc2NS(C)(=O)=O)c(C)c1` this time
Reply: ≤ 4.60

Task item: Entry COC1CC(NS(=O)(=O)c2ccc(-c3cncc(Cl)c3)nc2Oc2c(C)cc(C)cc2C2CC2)C1 (centres unmarked) please
Reply: 5.00 to 6.00

Task item: Then this compound: `Cc1cc(C(F)(F)F)nc(C2CC2)c1Oc1nc(-c2cncc(C#N)c2)ccc1S(=O)(=O)N(C)C`
Reply: > 6.00

---

- Target under test: UniProt P21439
- Test method notes: ABCB4 WT assay: HiBit protein expression
- Settings: HEK-293 cells stably expressing HiBit-tagged ABCB4 WT; 24 h treatment; top concentration 30 μM; read-out: ABCB4 WT EC50, Emax
Please provide measured EC50 for the entries that follow.

Task item: Data request, read-out EC50, for `Cc1nc(N2CC(F)(F)C2)nc(C)c1Oc1nc(-c2cncc(C#N)c2)ccc1NS(C)(=O)=O`
Reply: < 1 µM

Task item: Proceed to Cc1cc(C(F)(F)F)nc(C2CC2)c1Oc1nc(-c2cncc(C#N)c2)ccc1S(=N)(=O)c1cnccn1 (stereo not shown)
Reply: 1 to 10 µM

Task item: Let us now turn to `Cc1nc(C)c(Oc2nc(-c3cncc(C4CC4)c3)ccc2NS(C)(=O)=O)c(C)n1`
Reply: < 1 µM

Task item: // same read-out, input: `CNS(=O)(=O)c1ccc(-c2cncc(Cl)c2)nc1Oc1c(C)cc(C)cc1C1CC1`
Reply: 1 to 10 µM

Task item: Next compound up: `Cc1nc(C(F)F)nc(C)c1Oc1nc(-c2cncc(C#N)c2)ccc1NS(C)(=O)=O`
Reply: < 1 µM

Task item: Item: Cc1cc(C(F)(F)F)nc(C2CC2)c1Oc1nc(-c2cncc(C#N)c2)ccc1S(=N)(=O)c1cccnc1 (stereo not shown)
Reply: 1 to 10 µM

Task item: Ok, now `Cc1cc(C(F)F)nc(C)c1Oc1nc(-c2ccnc(C#N)c2)ccc1NS(=O)(=O)C1CC1`
Reply: < 25 µM

Task item: Further, for `Cc1cc(C)c(Oc2nc(-n3cc(C)cn3)ccc2NS(C)(=O)=O)c(C)c1` ?
Reply: ≥ 25 µM

Task item: # iterate: `Cc1nc(C2CC2)c(Cl)cc1Oc1nc(-c2cncc(C#N)c2)ccc1NS(C)(=O)=O`
Reply: < 25 µM

Task item: Can you handle `Cc1cc(C)c(Oc2nc(-c3cncc(Cl)c3)ccc2NS(=O)(=O)C2CC2)c(C)c1` next?
Reply: < 1 µM

Task item: Next record, please: `Cc1cc(C)c(Oc2nc(-c3cncc(N4CCOCC4)c3)ccc2NS(C)(=O)=O)c(C)n1`
Reply: ≥ 25 µM

Task item: Then what about the compound `Cc1cc(C)c(Oc2nc(-c3cccc(Cl)c3)ccc2S(N)(=O)=O)c(C)c1` ?
Reply: ≥ 25 µM

Task item: What do you have for `Cc1cc(C)c(Oc2nc(-c3cncc(Cl)c3)ccc2S(C)(=O)=O)c(C)c1` ?
Reply: 1 to 10 µM

Task item: Try `Cc1cc(C)c(Oc2nc(-c3cncc(Cl)c3)ccc2S(=O)(=O)NCc2ccccn2)c(C)c1` next.
Reply: 1 to 10 µM

Task item: Could you do the same for `Cc1cc(C)c(Oc2nc(-c3cncc(Cl)c3)ccc2NS(=O)(=O)c2cnn(C)c2)c(C2CC2)c1` , please?
Reply: ≥ 25 µM

Task item: And for `Cc1cc(C)c(Oc2nc(-c3cncc(C#N)c3)ccc2NS(=O)(=O)C2CC2)c(C)n1` ?
Reply: < 1 µM
